Target: T1, CD137-hisFc fusion protein (Sino Biological Cat 10041-H03H) (human, UniProt Q07011 24-186)
T1 construct: Bought; also called recombinant human CD137 (fused with human Fc and His tag); not shown: His tag and human Fc
Experiment: BLI Octet, Fab;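 also: fab fragments expressed in E. coli, binding to human CD137 measured on Octet RED96, kinetics fitted with a 1:1 Langmuir model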
Please respond with y when measured Kd is strictly beneath 3 nM, and with n in all other cases.

>>> assigned_class("Fab 5314 (Fab, V domains shown, Fab from E. coli; also called VH16/VL16) VH: EVQLVESGGGLVQPGGSLRLSCAASGFSLSTGGVAVGWIRQAPGKGLEWLALIDWAGDKSYSTSLKSRLTISRDNSKNTLYLQLNSLRAEDTAVYYCARGGSDTVLGDWFAYWGQGTLVTVSS VL: DIQLTQSPSSLSASVGDRVTITCRASQGVSPYLAWYQQKPGKAPKLLIYDASNRATGIPSRFSGSGSGTDFTLTISSLQPEDFATYYCQQGYSTWTFGQGTKVEIKR")
"n"
>>> assigned_class("Fab 4072 (Fab, V domains shown, Fab from E. coli; also called VH2/VL2) VH: EVQLVESGGGLVQPGGSLRLSCAASGFSLSTSGVAVSWIRQAPGKGLEWIGIINPNFGDTNYAQKFQGRVTISRDNSKNTLYLQLNSLRAEDTAVYYCARDEYYGGSYYFDYWGQGTLVTVSS VL: DIQLTQSPSSLSASVGDRVTITCRASQDVRTAVAWYQQKPGKAPKLLIYDASNLETGVPSRFSGSGSGTDFTLTISSLQPEDFATYYCQQSYDWPPTFGQGTKVEIKR")
"n"
>>> assigned_class("Fab 5303 (Fab, V domains shown, Fab from E. coli; also called VH14/VL14) VH: EVQLVESGGGLVQPGGSLRLSCAASGFSLSTSGVAVGWIRQAPGKGLEWLALIDWADDKYYSPSLKSRLTISRDNSKNTLYLQLNSLRAEDTAVYYCAREGSDAVLGDWFAYWGQGTLVTVSS VL: DIQLTQSPSSLSASVGDRVTITCRASQDISTFLAWYQQKPGKAPKLLIYDASSLESGVPSRFSGSGSGTDFTLTISSLQPEDFATYYCQQAYSIWTFGQGTKVEIKR")
"n"
>>> assigned_class("Fab 5404 (Fab, V domains shown, Fab from E. coli; also called VH34/VL34) VH: EVQLVESGGGLVQPGGSLRLSCAASGYSISSGYHWAWIRQAPGKGLEWIGEIYHSGSTYYSPSLKSRVTISRDNSKNTLYLQLNSLRAEDTAVYYCARSPYYYGVFDYWGQGTLVTVSS VL: DIQLTQSPSSLSASVGDRVTITCSASSRVGSVYWYQQKPGKAPKLLIYDASNLETGVPSRFSGSGSGTDFTLTISSLQPEDFATYYCQQYTHDPVTFGQGTKVEIKR")
"n"
>>> assigned_class("Fab 5365 (Fab, V domains shown, Fab from E. coli; also called VH30/VL30) VH: EVQLVESGGGLVQPGGSLRLSCAASGFSLSTGGVGVGWIRQAPGKGLEWLALIDWADDKYYSPSLKSRLTISRDNSKNTLYLQLNSLRAEDTAVYYCARGGSDTVIGDWFAYWGQGTLVTVSS VL: DIQLTQSPSSLSASVGDRVTITCRASQSIGSYLAWYQQKPGKAPKLLIYDASNLETGVPSRFSGSGSGTDFTLTISSLQPEDFATYYCQQGYYLWTFGQGTKVEIKR")
"y"

Inquiry: Please let me know if Fab 5413 (Fab, V domains shown, Fab from E. coli; also called VH38/VL38) VH: EVQLVESGGGLVQPGGSLRLSCAASGFSLSTGGVAVGWIRQAPGKGLEWLALIDWDGDKSYSTSLKSRLTISRDNSKNTLYLQLNSLRAEDTAVYYCAREGSTAVVGDWFDYWGQGTLVTVSS VL: DIQLTQSPSSLSASVGDRVTITCRASQGISRYLAWYQQKPGKAPKLLIYDASNRATGIPSRFSGSGSGTDFTLTISSLQPEDFATYYCQQGYSLWTFGQGTKVEIKR shows Kd below 3 nM.
Reply text: y

Inquiry: Okay, and Fab 5310 (Fab, V domains shown, Fab from E. coli; also called VH15/VL15) VH: EVQLVESGGGLVQPGGSLRLSCAASGFSLSTSGVGVGWIRQAPGKGLEWLALIDWDDDKYYSPSLKSRLTISRDNSKNTLYLQLNSLRAEDTAVYYCARGGSDTVLGDWFAYWGQGTLVTVSS VL: DIQLTQSPSSLSASVGDRVTITCRASQSVSPYLAWYQQKPGKAPKLLIYDASSLESGVPSRFSGSGSGTDFTLTISSLQPEDFATYYCQQGYSLWTFGQGTKVEIKR ?
Reply text: n
